B1: Homeobox expressed in ES cells 1, residues 110 to 165; numbered along this chain, Q9UBX0 (parent)
chain: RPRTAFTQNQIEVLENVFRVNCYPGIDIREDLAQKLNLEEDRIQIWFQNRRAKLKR

Variants of: B1
Assay: abundance fitness (aPCA) (normalised: wild type 0, dead -1); higher = more abundant; growth selection in yeast, the domain comes from the species named
Settings: Homo sapiens
Lab note: compare abundance fitness against -0.1. Equal or greater, write Y. Smaller, write N.

Some solved cases for reference:
- R29L: N
- E15H: N
- C22L: N
- L32F: N
- A5L: Y

Reported abundance fitness at or above -0.1? `P2A` Y

Reported abundance fitness at or above -0.1? `N9A` N

Reported abundance fitness at or above -0.1? `V20K` Y

Reported abundance fitness at or above -0.1? `Q10F` N

Reported abundance fitness at or above -0.1? `Q34K` N
